Target: CXCR4 receptors (Homo sapiens)
Construct: expressing endogenous CXCR4 receptors; endogenous in cells
Sequence (P61073 whole entry): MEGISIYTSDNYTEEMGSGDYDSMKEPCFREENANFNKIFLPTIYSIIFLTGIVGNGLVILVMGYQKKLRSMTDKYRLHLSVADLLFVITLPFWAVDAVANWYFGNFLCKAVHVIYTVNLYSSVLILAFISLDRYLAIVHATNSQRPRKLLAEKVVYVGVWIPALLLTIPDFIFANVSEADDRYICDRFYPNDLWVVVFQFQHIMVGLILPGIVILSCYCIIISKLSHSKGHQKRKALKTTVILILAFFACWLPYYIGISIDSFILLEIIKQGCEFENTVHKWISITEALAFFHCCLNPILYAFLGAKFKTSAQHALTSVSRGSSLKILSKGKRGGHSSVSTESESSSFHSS
Assay: CXCR4-CEM calcium flux assay, antagonist mode (inhibition of SDF-1α-induced calcium flux)
Details: inhibition of calcium flux induced by 4 nM SDF-1α in CCRF-CEM cells
Overview of reported pIC50 across a group of molecules:
// returns pIC50 (minus log10 of molar concentration), number only

Study these solved cases before continuing.
* CN(Cc1cn2c(N3CC4CCCNC4C3)nccc2n1)[C@H]1CCCc2cccnc21 (single isomer, unassigned) [Example 95] | 7.62
* CC(=O)N1CCN(c2nccc3nc(CN(C)[C@H]4CCCc5cccnc54)cn23)CC1 [Example 10] | 5.07
* CN(Cc1cn2c(N3CCn4cnnc4C3)nccc2n1)[C@H]1CCCc2cccnc21 [Example 82] | 5.42

// moving on: another record for pIC50
pIC50 for CN(Cc1cn2c(N3CCN(S(C)(=O)=O)CC3)nccc2n1)[C@H]1CCCc2cccnc21 [Example 15] is 6.12
